# target entity: ERα (Homo sapiens, UniProt P03372)
# Sequence (P03372 whole entry): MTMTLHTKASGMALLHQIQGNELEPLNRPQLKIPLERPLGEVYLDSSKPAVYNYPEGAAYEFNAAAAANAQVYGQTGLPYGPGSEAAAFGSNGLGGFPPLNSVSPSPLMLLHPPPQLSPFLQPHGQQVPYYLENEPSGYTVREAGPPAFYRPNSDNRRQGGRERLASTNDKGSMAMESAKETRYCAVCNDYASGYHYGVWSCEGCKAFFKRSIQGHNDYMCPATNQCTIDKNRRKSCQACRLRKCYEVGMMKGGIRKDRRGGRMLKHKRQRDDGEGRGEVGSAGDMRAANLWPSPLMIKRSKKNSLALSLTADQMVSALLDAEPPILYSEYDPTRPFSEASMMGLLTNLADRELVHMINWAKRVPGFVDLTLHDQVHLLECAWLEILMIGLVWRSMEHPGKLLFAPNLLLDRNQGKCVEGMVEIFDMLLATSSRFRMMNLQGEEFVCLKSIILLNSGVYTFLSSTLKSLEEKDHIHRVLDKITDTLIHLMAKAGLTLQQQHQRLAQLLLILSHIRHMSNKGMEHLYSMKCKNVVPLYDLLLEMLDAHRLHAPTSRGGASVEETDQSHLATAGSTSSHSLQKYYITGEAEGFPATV
# assay details: ERα degradation in T-47D cells (Western blot)
# Format: cell-based
# recorded conditions: 10nM, 4 hours
Classification field: true (1) = Degradation rate of ERα in T-47D cells (%) at or over 30%; false (0) = Degradation rate of ERα in T-47D cells (%) under 30%.

>>> cat("C[C@@H]1Cc2cc(O)ccc2C(c2c(F)cc(N3CCC4(CC3)CC(N3CCC5(CC3)CCC3(CC5)COc5c3ccc3c5CN(C5CCC(=O)NC5=O)C3=O)C4)cc2F)N1CC(F)F (stereo partly shown)")
"true (1)"
>>> cat("Cn1c(=O)n(C2CCC(=O)NC2=O)c2ccc3c(c21)C1(CCN(C2CCC4(CC2)CN(c2ccc([C@@H]5c6ccc(O)cc6CC[C@@H]5c5ccccc5)cc2)C4)CC1)CO3 (stereo partly shown)")
"false (0)"
>>> cat("Cn1c(=O)n(C2CCC(=O)NC2=O)c2ccc3c(c21)OCC31CCN(C2CC3(CCN(c4ccc([C@@H]5c6ccc(O)cc6CC[C@@H]5c5ccccc5)cc4)CC3)C2)CC1 (stereo partly shown) [ER-P-15]")
"true (1)"
>>> cat("O=C1CCC(Nc2ccc3c(c2)OC2(CC3)CN(C[C@H]3CC[C@@H](OC4CCN(c5ccc([C@@H]6c7ccc(O)cc7CC[C@@H]6c6ccccc6)cc5)CC4)CC3)C2)C(=O)N1 (stereo partly shown)")
"true (1)"
>>> cat("O=C1CCC(n2c(=O)n3c4c(cccc42)N(C[C@H]2CC[C@@H](OC4CCN(c5ccc([C@@H]6c7ccc(O)cc7CC[C@@H]6c6ccccc6)cc5)CC4)CC2)CC3)C(=O)N1 (stereo partly shown)")
"false (0)"
>>> cat("CN(c1ccc2c(c1)COC[C@H]1CN(CC3CCC(OC4CCN(c5ccc([C@@H]6c7ccc(O)cc7CC[C@@H]6c6ccccc6)cc5)CC4)CC3)CCN21)C1CCC(=O)NC1=O (stereo partly shown) [ER-P-52]")
"false (0)"
>>> cat("O=C1CCC(N2Cc3c(ccc4c3OCC43CCC4(CC3)CN(C3CCC5(CC3)CCN(c3ccc([C@@H]6c7ccc(O)cc7CC[C@@H]6c6ccccc6)cc3)CC5)C4)C2=O)C(=O)N1 (stereo partly shown)")
"true (1)"
>>> cat("CN(C(=O)CN1CCC2(CC1)COc1c2ccc2c1n(C)c(=O)n2C1CCC(=O)NC1=O)C1CCC2(CC1)CN(c1ccc([C@@H]3c4ccc(O)cc4CC[C@@H]3c3ccccc3)cc1)C2 (stereo partly shown)")
"true (1)"
>>> cat("Cn1c(=O)n(C2CCC(=O)NC2=O)c2ccc3c(c21)C1(CCN(C(=O)[C@H]2CC[C@H](CN4CCN(c5ccc([C@@H]6c7ccc(O)cc7CC[C@@H]6c6ccccc6)cc5)CC4)CC2)CC1)CO3 (stereo partly shown)")
"true (1)"

----------
# target entity: AR protein (Homo sapiens, UniProt P10275)
# Construct: host or cells: VCaP
# Sequence (P10275 whole entry): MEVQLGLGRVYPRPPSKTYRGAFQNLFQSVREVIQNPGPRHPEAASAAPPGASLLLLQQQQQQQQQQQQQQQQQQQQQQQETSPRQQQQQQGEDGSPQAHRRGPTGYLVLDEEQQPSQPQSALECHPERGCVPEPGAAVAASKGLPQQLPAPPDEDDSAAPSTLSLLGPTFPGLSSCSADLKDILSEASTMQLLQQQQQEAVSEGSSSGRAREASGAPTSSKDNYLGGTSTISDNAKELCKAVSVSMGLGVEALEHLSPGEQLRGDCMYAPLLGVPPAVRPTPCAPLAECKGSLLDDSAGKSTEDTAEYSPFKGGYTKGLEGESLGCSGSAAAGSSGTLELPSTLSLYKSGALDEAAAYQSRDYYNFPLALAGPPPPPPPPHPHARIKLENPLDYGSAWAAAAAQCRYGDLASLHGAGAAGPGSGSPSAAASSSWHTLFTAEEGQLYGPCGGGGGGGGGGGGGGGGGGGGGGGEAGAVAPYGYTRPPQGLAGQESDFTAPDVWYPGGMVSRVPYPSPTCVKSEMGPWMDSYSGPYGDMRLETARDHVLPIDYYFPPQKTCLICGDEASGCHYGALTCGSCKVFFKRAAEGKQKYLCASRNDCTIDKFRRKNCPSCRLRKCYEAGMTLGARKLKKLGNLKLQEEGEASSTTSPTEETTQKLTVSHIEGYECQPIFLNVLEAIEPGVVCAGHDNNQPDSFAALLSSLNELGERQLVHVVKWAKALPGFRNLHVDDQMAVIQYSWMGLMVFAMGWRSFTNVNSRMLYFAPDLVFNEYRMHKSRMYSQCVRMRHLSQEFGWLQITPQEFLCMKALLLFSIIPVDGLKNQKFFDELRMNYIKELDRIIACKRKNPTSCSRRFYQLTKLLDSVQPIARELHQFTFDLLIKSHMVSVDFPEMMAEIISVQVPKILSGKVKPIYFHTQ
# assay details: AR protein degradation in VCaP cells (Western blot)
# Format: cell-based
# recorded conditions: 5 nM, 8h
criterion met if AR protein degradation rate at fixed concentration (%) at 0.005 µM is below 70%. criterion not met if not; exact matches included in criterion not met.

>>> cat("Cn1c(=O)n(C2CCC(=O)NC2=O)c2ccc3c(c21)OCC31CCN(C2CCN(c3ccc(C(=O)N[C@H]4CC[C@H](Oc5ccc(C#N)c(Cl)c5)CC4)nn3)CC2)CC1 (some centres unmarked) [A-P-23]")
"criterion not met"
>>> cat("COc1cc(O[C@H]2C(C)(C)[C@H](NC(=O)c3ccc(N4CCC(F)(CN5CCC6(CC5)COc5cc7c(cc56)n(C)c(=O)n7C5CCC(=O)NC5=O)CC4)cc3)C2(C)C)ccc1C#N (some centres unmarked) [A-P-13]")
"criterion not met"
>>> cat("C[C@H]1CC2(CCN(c3ccc(C(=O)N4CCC(CN5CCC6(CCc7cc(C(=O)N[C@H]8CCC(=O)NC8=O)c(F)cc7O6)CC5)CC4)cc3)CC2)CN1c1ccc(C#N)c(Cl)c1 [A-P-35]")
"criterion met"
>>> cat("Cn1c(=O)n(C2CCC(=O)NC2=O)c2ccc3c(c21)OCC31CCN(C2CC3(CCN(c4ccc(C(=O)N[C@H]5CC[C@H](Oc6ccc(C#N)c(Cl)c6)CC5)nn4)CC3)C2)CC1 (some centres unmarked) [A-P-25]")
"criterion not met"
>>> cat("Cn1c(=O)n(C2CCC(=O)NC2=O)c2ccc3c(c21)OCC31CCN(CC2CCN(c3ccc(C(=O)N[C@H]4CC[C@H](Oc5ccc(C#N)c(Cl)c5)CC4)nn3)CC2)CC1 (some centres unmarked) [A-P-24]")
"criterion not met"

----------
# Tested on: VCaP cells
# assay details: Inhibition of VCaP cell proliferation (WST-8)
# Assay type: cell-based
# recorded conditions: Homo sapiens, 168 hours
I'd appreciate it if you marked entries Condition met when IC50 is lower than 5 nM and Condition not met when it is not.

>>> cat("COc1cc(O[C@H]2C(C)(C)[C@H](NC(=O)c3ccc(N4CCC(C)(CN5CCC6(CC5)COc5c6ccc(C(=O)N[C@H]6CCC(=O)NC6=O)c5F)CC4)cc3)C2(C)C)ccc1C#N")
"Condition not met"
>>> cat("COc1cc(O[C@H]2CC[C@H](NC(=O)c3ccc(N4CCC(CN5CCC6(CC5)COc5cc7c(cc56)n(C)c(=O)n7C5CCC(=O)NC5=O)CC4)nn3)CC2)ccc1C#N (relative stereo)")
"Condition not met"
>>> cat("Cn1c(=O)n(C2CCC(=O)NC2=O)c2ccc3c(c21)OCC31CCN(CC2CCN(c3ccc(C(=O)N[C@H]4CC[C@H](Oc5ccc(C#N)c(Cl)c5)CC4)nn3)CC2)CC1 (stereo partly shown)")
"Condition met"
>>> cat("N#Cc1cc2c(cc1Cl)CC1(CCN(c3ccc(C(=O)N4CCC(CN5CCC6(CCc7cc(C(=O)N[C@H]8CCC(=O)NC8=O)c(F)cc7O6)CC5)CC4)cc3)CC1)CO2")
"Condition not met"
>>> cat("COc1cc(O[C@H]2C(C)(C)[C@H](NC(=O)c3ccc(N4CCC(C)(CN5CC6(CCC7(CC6)COc6c7ccc7c6CN(C6CCC(=O)NC6=O)C7=O)C5)CC4)cc3)C2(C)C)ccc1C#N (relative stereo)")
"Condition met"
>>> cat("COc1cc(O[C@H]2C(C)(C)[C@H](NC(=O)c3ccc(N4CCC(CN5CCN6c7cc(F)c(C(=O)N[C@H]8CCC(=O)NC8=O)cc7OC[C@H]6C5)CC4)cc3)C2(C)C)ccc1C#N")
"Condition not met"
>>> cat("COc1cc(O[C@H]2C(C)(C)[C@H](NC(=O)c3ccc(N4CCC(CN5CCC6(CCc7cc(C(=O)N[C@H]8CCC(=O)NC8=O)c(F)cc7O6)CC5)CC4)nn3)C2(C)C)ccc1C#N")
"Condition met"
>>> cat("COc1cc(O[C@H]2C(C)(C)[C@H](NC(=O)c3ccc(N4CCC5(CC4)CC(N4CCC6(CCc7cc(C(=O)N[C@H]8CCC(=O)NC8=O)c(F)cc7O6)CC4)C5)cc3)C2(C)C)ccc1C#N")
"Condition not met"
>>> cat("COc1cc(O[C@H]2C(C)(C)[C@H](NC(=O)c3ccc(N4CCC(N5CCC6(CC5)COc5c6ccc6c5n(C)c(=O)n6C5CCC(=O)NC5=O)CC4)cc3)C2(C)C)ccc1C#N (stereo partly shown)")
"Condition not met"

----------
# target entity: SMARCA4 (Homo sapiens, UniProt P51532)
# Sequence (P51532 whole entry): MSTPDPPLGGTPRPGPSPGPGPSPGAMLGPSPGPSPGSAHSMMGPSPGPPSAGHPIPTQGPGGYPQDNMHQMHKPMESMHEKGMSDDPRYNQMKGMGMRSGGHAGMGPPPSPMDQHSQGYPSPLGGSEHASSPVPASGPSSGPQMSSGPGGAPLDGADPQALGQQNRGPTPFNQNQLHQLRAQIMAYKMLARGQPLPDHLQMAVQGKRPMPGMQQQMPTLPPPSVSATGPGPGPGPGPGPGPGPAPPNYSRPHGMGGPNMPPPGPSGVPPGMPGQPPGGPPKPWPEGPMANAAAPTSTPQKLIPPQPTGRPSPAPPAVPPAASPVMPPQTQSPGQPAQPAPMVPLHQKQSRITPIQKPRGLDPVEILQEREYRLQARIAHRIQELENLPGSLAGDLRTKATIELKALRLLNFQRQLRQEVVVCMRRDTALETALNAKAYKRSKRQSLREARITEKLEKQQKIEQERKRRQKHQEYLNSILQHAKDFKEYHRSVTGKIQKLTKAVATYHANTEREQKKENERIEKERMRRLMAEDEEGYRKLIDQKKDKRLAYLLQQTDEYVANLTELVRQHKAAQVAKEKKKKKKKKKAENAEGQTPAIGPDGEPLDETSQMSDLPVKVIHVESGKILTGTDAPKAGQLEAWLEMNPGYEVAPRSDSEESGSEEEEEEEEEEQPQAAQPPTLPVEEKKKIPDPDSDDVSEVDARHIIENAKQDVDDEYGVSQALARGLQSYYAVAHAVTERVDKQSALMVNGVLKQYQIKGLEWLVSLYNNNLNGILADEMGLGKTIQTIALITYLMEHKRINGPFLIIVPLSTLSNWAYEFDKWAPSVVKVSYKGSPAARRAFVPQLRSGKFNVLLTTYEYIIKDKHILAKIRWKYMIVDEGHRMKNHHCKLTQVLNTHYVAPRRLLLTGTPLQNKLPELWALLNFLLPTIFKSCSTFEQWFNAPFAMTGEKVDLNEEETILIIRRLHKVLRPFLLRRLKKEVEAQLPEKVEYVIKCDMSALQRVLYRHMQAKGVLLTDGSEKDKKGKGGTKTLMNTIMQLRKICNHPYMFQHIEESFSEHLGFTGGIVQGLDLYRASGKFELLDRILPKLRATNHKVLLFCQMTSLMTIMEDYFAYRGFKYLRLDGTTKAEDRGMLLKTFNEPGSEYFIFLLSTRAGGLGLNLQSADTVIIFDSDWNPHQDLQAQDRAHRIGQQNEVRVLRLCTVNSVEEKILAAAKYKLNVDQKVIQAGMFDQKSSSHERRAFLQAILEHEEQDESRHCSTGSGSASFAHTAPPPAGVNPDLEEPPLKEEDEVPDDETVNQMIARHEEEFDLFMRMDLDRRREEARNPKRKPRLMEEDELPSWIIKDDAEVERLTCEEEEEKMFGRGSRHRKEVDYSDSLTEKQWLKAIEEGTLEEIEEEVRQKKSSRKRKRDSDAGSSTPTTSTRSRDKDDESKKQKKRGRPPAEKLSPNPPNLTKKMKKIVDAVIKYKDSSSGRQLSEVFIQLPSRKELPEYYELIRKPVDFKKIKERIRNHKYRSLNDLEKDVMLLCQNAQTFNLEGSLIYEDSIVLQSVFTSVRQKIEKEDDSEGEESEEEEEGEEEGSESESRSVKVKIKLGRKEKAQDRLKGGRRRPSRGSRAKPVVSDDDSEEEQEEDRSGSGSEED
# assay details: SMARCA4 degradation in SW1573 cells (Western blot)
# Assay type: cell-based
# Parameters: endogenous in cells; host or cells: SW1573
# recorded conditions: 80 nM, 24 hours, read-out: Degradation rate of SMARCA4 in SW1573 cells (%)
assay metric: Dmax at 0.08 µM (%)

>>> result_value("Nc1nnc(-c2ccccc2O)cc1C#CC1CCC2(CC1)CC(N1CCC3(CCc4cc(C(=O)N[C@H]5CCC(=O)NC5=O)c(F)cc4O3)CC1)C2 (stereo partly drawn) [SM-P-7]")
39
>>> result_value("Nc1nnc(-c2ccccc2O)cc1C#CC1CCC2(CC1)CC(N1CCC3(CCc4cc(F)c(C(=O)N[C@H]5CCC(=O)NC5=O)cc4O3)CC1)C2 (stereo partly drawn) [SM-P-12]")
5
>>> result_value("Cn1c(=O)n(C2CCC(=O)NC2=O)c2ccc3c(c21)OCC31CCN(C(=O)[C@H]2CC[C@H](Cn3cc(-c4cc(-c5ccccc5O)nnc4N)cn3)CC2)CC1 (stereo partly drawn) [SM-P-27]")
82
>>> result_value("Nc1nnc(-c2ccccc2O)cc1C#CC1CCC2(CC1)CC(N1CCC3(CCc4ccc(NC5CCC(=O)NC5=O)cc4O3)CC1)C2 (stereo not drawn) [SM-P-24]")
11
>>> result_value("Nc1nnc(-c2ccccc2O)cc1C#CC1CCC2(CC1)CC(N1CCN3c4ccc(C(=O)N[C@H]5CCC(=O)NC5=O)c(F)c4OC[C@H]3C1)C2 (stereo partly drawn) [SM-P-22]")
4
>>> result_value("Cn1c(=O)n(C2CCC(=O)NC2=O)c2cc3c(cc21)C1(CCN(C(=O)[C@H]2CC[C@H](Cn4cc(-c5cc(-c6ccccc6O)nnc5N)cn4)CC2)CC1)CO3 (stereo partly drawn) [SM-P-28]")
95
